src = paper PMC9482650

// reported pKd for each item listed
- assay system: T1, DLG3_2, Q92796
- T1 sequence (Q92796 221-321, limits assumed, looked up): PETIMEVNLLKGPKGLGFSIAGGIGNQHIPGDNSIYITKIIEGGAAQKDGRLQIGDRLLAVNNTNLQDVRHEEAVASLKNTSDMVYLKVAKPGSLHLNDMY
- method notes: holdup assay
- Set-up: key: below the threshold = too weak to quantify, mostly under pKd 3.1 to 4
- protocol conditions: plain residues with an end cap or a label only (N-terminal biotin on a linker: ado-ado)
Format: numeric value only, no unit, no commentary.

(Q) Query: pKd; subject: SLNANEVEWF [RNF130, Q86XS8]
(A) 4.22

(Q) Another binder to check: VKRNSKETVV [MARCHF3, Q86UD3]
(A) 5.52

(Q) Cool, now ARESQKVSHV [FAM110B, Q8TC76]
(A) 4.22

(Q) Repeat for the following binder: MQHQRTHTRV [ZSCAN30, Q86W11]
(A) 4.88

(Q) What would you report for NIAESLESLV [PTPRZ1, P23471] ?
(A) 4.81

(Q) Okay, and QLSFNTDTLC [ABCA2, Q9BZC7] ?
(A) 4.26

(Q) Same read-out for ARGPPRESEV [FAM110D, Q8TAY7] ?
(A) 5.19

(Q) Then NTANRRTTPV [CACNG2, Q9Y698] ?
(A) 4.44

(Q) What about this binder? RFQQRMQTHV [KIRREL1, Q96J84]
(A) 4.69

(Q) Try the binder LESTTVGTSV [KARS1, Q15046]
(A) 4.51

(Q) Next record, please: SVTSERETNI [SLC16A7, O60669]
(A) 4.25

(Q) What about TGLWKHETTV [ADGRA3, Q8IWK6] ?
(A) 5.25

(Q) Try the binder AAVENKVTDL [PLXNB1, O43157]
(A) 3.72

(Q) Now try EDGESWEYQI [TRPV6, Q9H1D0] .
(A) 4.02

(Q) Next record, please: PPGKHLVTEV [KCNA7, Q96RP8]
(A) 5.19

(Q) Again, but for PSHPRLQTHV [KIRREL2, Q6UWL6]
(A) 4.6

(Q) Quick one: SFISKKEWYV [NECTIN1, Q15223]
(A) 4.11

(Q) Same lookup for TNSRHGETTV [FZD2, Q14332] , please.
(A) 4.72
